- Measured On: T1, Hu HER3: CD33-[Human HER3, residues 20-640]-TAG (human, UniProt P21860 20-640)
- T1 construct: also called hu HER3-Tag; HER3-Tag; not shown: C-terminal TAG (e.g., FLAG TAG)
- Method: SET, IgG vs soluble HER3-Tag
pKd: −log10 of the molar value.
Overview of recorded pKd for various binders
Endpoint: pKd

1. MOR13752 (antibody, human IgG1, kappa, V domains shown, tested as IgG) VH: QVQLVQSGAEVKKPGESLKISCKGSGYSFTNYWVAWVRQMPGKGLEWMGIIYPGGSDTIYSPSFQGQVTISADKSISTAYLQWSSLKASDTAMYYCARVHIIQPPSAWSYNAMDVWGQGTLVTVSS VL: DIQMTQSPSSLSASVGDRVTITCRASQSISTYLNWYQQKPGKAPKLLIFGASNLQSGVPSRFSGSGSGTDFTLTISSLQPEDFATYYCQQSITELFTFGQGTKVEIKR : 10.02
2. MOR13768 (antibody, human IgG1, kappa, V domains shown, tested as IgG) VH: QVQLVQSGAEVKKPGESLKISCKGSGYSFTSSWVAWVRQMPGKGLEWMGIIYPGQSDTIYSPSFQGQVTISADKSISTAYLQWSSLKASDTAMYYCARVHIIQPPSAWSYNAMDVWGQGTLVTVSS VL: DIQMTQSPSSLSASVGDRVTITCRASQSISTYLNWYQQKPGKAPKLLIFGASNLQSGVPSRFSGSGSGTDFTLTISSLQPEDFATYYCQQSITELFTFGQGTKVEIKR : 10.43
